Test system: 188146-221-R-J1-PDC complex spheroid viability
Assay: Anticancer human tumor 188146-221-R-J1-PDC patient-derived colon adenocarcinoma cell line growth inhibition [POLQ]
Settings: second compound 1 µM; first compound 0.0316 µM; active compounds read low
quantityKind: viability, T/C (%)
Your answer should be a plain number; it is taken to be in %.

Guide cases for viability, T/C, answers given:
compound	viability, T/C / %
CCc1cc2c(N3CCc4c(cc(Cn5ccnc5)cc4-c4cn(C)nc4C(F)(F)F)C3=O)cc(C)nc2c(OC)n1 + COC1C(OC(N)=O)C(O)C(Oc2ccc3c(O)c(NC(=O)c4ccc(O)c(CC=C(C)C)c4)c(=O)oc3c2C)OC1(C)C	108
CNCc1ccc(-c2[nH]c3cc(F)cc4c3c2CCNC4=O)cc1 + Cc1cccc(N(C)C(=O)C2C(O)CCN2c2nc(C)cc(C(F)(F)F)c2C#N)c1	109

// viability, T/C (188146-221-R-J1-PDC complex spheroid viability) for CC(C)n1c(=O)n(C)c2cnc3cc(F)c(-c4ccc(OCCCN5CCCCC5)nc4)cc3c21 + Cc1cccc(N(C)C(=O)C2C(O)CCN2c2nc(C)cc(C(F)(F)F)c2C#N)c1 = 111

* * *

Property: viability, T/C; scope: individual molecules
System: 188146-221-R-J1-PDC complex spheroid viability
Assay: Anticancer human tumor 188146-221-R-J1-PDC cell line growth inhibition [POLQ];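 note: spheroids exposed to compounds for seven days; 100% = DMSO vehicle control viability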
Conditions: second compound 0.0316 µM; first compound 3.16 µM; active compounds read low
Description: Multicellular complex tumor spheroid response to Polymerase (POL) inhibitors (novobiocin, ART-558, RP6685) in combination with a variety of drugs and investigational agents in selected tumor cell lines The POL inhibitors (novobiocin, ART-558, and RP6685) were evaluated both individually and in combination with standard of care and investigational anticancer small molecules within a complex spheroid model of solid tumors. . […]
Your answer should be a plain number; it is taken to be in %.

Guide cases for viability, T/C, answers given:
molecule	viability, T/C [%]
Nc1ccn(C2OC(CO)C(O)C2(F)F)c(=O)n1 (stereo not drawn) + COC1C(OC(N)=O)C(O)C(Oc2ccc3c(O)c(NC(=O)c4ccc(O)c(CC=C(C)C)c4)c(=O)oc3c2C)OC1(C)C	15.2
COc1cc(C2c3cc4c(cc3C(OC3OC5COC(C)OC5C(O)C3O)C3COC(=O)C23)OCO4)cc(OC)c1O (stereo not drawn) + Cc1cccc(N(C)C(=O)C2C(O)CCN2c2nc(C)cc(C(F)(F)F)c2C#N)c1	27.5

Now for a further molecule.
viability, T/C recorded for this molecule, CNCc1ccc(-c2[nH]c3cc(F)cc4c3c2CCNC4=O)cc1 + Cc1cccc(N(C)C(=O)C2C(O)CCN2c2nc(C)cc(C(F)(F)F)c2C#N)c1 , is 114

* * *

Test system: 188146-221-R-J1-PDC complex spheroid viability
Experiment: Anticancer human tumor 188146-221-R-J1-PDC cell line growth inhibition [POLQ];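 note: spheroids exposed to compounds for seven days; 100% = DMSO vehicle control viability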
Conditions: second compound 0.0316 µM; first compound 3.16 µM; active compounds read low
Property: viability, T/C; scope: individual compounds
Your answer should be a plain number; it is taken to be in %.

Guide cases for viability, T/C, answers given:
compound	quantityKind	unitLabel	testResult
COc1cc(C2c3cc4c(cc3C(OC3OC5COC(C)OC5C(O)C3O)C3COC(=O)C23)OCO4)cc(OC)c1O (stereo not given) + COC1C(OC(N)=O)C(O)C(Oc2ccc3c(O)c(NC(=O)c4ccc(O)c(CC=C(C)C)c4)c(=O)oc3c2C)OC1(C)C	viability, T/C	%	31.3
Nc1ccn(C2OC(CO)C(O)C2(F)F)c(=O)n1 (stereo not given) + Nc1ccc(C#CCN(C(=O)Cc2ncc(C(F)(F)F)cc2C(F)(F)F)c2ccc(F)cc2)nn1	viability, T/C	%	17.6
C#Cc1c(F)ccc2cc(O)cc(-c3ncc4c(N5CC6CCC(C5)N6)nc(OCC56CCCN5CC(F)C6)nc4c3F)c12 (stereo not given) + Nc1ccc(C#CCN(C(=O)Cc2ncc(C(F)(F)F)cc2C(F)(F)F)c2ccc(F)cc2)nn1	viability, T/C	%	83.2
CCc1cc2c(N3CCc4c(cc(Cn5ccnc5)cc4-c4cn(C)nc4C(F)(F)F)C3=O)ccnc2c(OC)n1 + Cc1cccc(N(C)C(=O)C2C(O)CCN2c2nc(C)cc(C(F)(F)F)c2C#N)c1	viability, T/C	%	67.8

Now for a further compound.
// viability, T/C (188146-221-R-J1-PDC complex spheroid viability) for C#Cc1c(F)ccc2cc(O)cc(-c3ncc4c(N5CC6CCC(C5)N6)nc(OCC56CCCN5CC(F)C6)nc4c3F)c12 (stereo not given) + COC1C(OC(N)=O)C(O)C(Oc2ccc3c(O)c(NC(=O)c4ccc(O)c(CC=C(C)C)c4)c(=O)oc3c2C)OC1(C)C = 103

* * *

System: 188146-221-R-J1-PDC complex spheroid viability
Assay: Anticancer human tumor 188146-221-R-J1-PDC cell line growth inhibition [POLQ];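 note: spheroids exposed to compounds for seven days; 100% = DMSO vehicle control viability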
Details: second compound 0.316 µM; first compound 0.0316 µM; active compounds read low
quantityKind: viability, T/C (%)
Your answer should be a plain number; it is taken to be in %.

compound	targetOrTestSystem	viability, T/C / %
COc1cccc(OCCCN)c1-c1cc(Nc2cnc(C#N)cn2)n[nH]1 + COC1C(OC(N)=O)C(O)C(Oc2ccc3c(O)c(NC(=O)c4ccc(O)c(CC=C(C)C)c4)c(=O)oc3c2C)OC1(C)C	188146-221-R-J1-PDC complex spheroid viability	60.2
CC1COCCN1c1cc(C2(S(C)(=N)=O)CC2)nc(-c2ccnc3[nH]ccc23)n1 (stereo unspecified) + COC1C(OC(N)=O)C(O)C(Oc2ccc3c(O)c(NC(=O)c4ccc(O)c(CC=C(C)C)c4)c(=O)oc3c2C)OC1(C)C	188146-221-R-J1-PDC complex spheroid viability	96.2
CNCc1ccc(-c2[nH]c3cc(F)cc4c3c2CCNC4=O)cc1 + Cc1cccc(N(C)C(=O)C2C(O)CCN2c2nc(C)cc(C(F)(F)F)c2C#N)c1	188146-221-R-J1-PDC complex spheroid viability	112
COc1cccc2c1C(=O)c1c(O)c3c(c(O)c1C2=O)CC(O)(C(=O)CO)CC3OC1CC(N)C(O)C(C)O1 (stereo unspecified) + Cc1cccc(N(C)C(=O)C2C(O)CCN2c2nc(C)cc(C(F)(F)F)c2C#N)c1	188146-221-R-J1-PDC complex spheroid viability	81
COc1cccc(OCCCN)c1-c1cc(Nc2cnc(C#N)cn2)n[nH]1 + Nc1ccc(C#CCN(C(=O)Cc2ncc(C(F)(F)F)cc2C(F)(F)F)c2ccc(F)cc2)nn1	188146-221-R-J1-PDC complex spheroid viability	59.1

viability, T/C recorded for this compound, CCc1c2c(nc3ccc(O)cc13)-c1cc3c(c(=O)n1C2)COC(=O)[C@]3(O)CC + COC1C(OC(N)=O)C(O)C(Oc2ccc3c(O)c(NC(=O)c4ccc(O)c(CC=C(C)C)c4)c(=O)oc3c2C)OC1(C)C , is 38

viability, T/C recorded for this compound, O=C(Nc1ccc(O)c(NS(=O)(=O)c2ccc(F)cc2)c1)c1ccc(-c2ccccc2)cc1 + COC1C(OC(N)=O)C(O)C(Oc2ccc3c(O)c(NC(=O)c4ccc(O)c(CC=C(C)C)c4)c(=O)oc3c2C)OC1(C)C , is 95

viability, T/C recorded for this compound, C=CCn1c(=O)c2cnc(Nc3ccc(N4CCN(C)CC4)cc3)nc2n1-c1cccc(C(C)(C)O)n1 + Nc1ccc(C#CCN(C(=O)Cc2ncc(C(F)(F)F)cc2C(F)(F)F)c2ccc(F)cc2)nn1 , is 115

viability, T/C recorded for this compound, COc1cc2cc(C(=O)CCC(=O)O)sc2cc1OC + Nc1ccc(C#CCN(C(=O)Cc2ncc(C(F)(F)F)cc2C(F)(F)F)c2ccc(F)cc2)nn1 , is 109

viability, T/C recorded for this compound, C=CCn1c(=O)c2cnc(Nc3ccc(N4CCN(C)CC4)cc3)nc2n1-c1cccc(C(C)(C)O)n1 + COC1C(OC(N)=O)C(O)C(Oc2ccc3c(O)c(NC(=O)c4ccc(O)c(CC=C(C)C)c4)c(=O)oc3c2C)OC1(C)C , is 96.5

viability, T/C recorded for this compound, CC[C@@]1(O)C(=O)OCc2c1cc1n(c2=O)Cc2cc3c(CN(C)C)c(O)ccc3nc2-1 + Nc1ccc(C#CCN(C(=O)Cc2ncc(C(F)(F)F)cc2C(F)(F)F)c2ccc(F)cc2)nn1 , is 103

* * *

Tested on: 188146-221-R-J1-PDC complex spheroid viability
Test: Anticancer human tumor 188146-221-R-J1-PDC cell line growth inhibition [POLQ];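 note: spheroids exposed to compounds for seven days; 100% = DMSO vehicle control viability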
Conditions: second compound 0.316 µM; first compound 0.0316 µM; active compounds read low
quantityKind: viability, T/C (%)
Your answer should be a plain number; it is taken to be in %.

Guide cases for viability, T/C, answers given:
compound	viability, T/C (%)
C#Cc1c(F)ccc2cc(O)cc(-c3ncc4c(N5CC6CCC(C5)N6)nc(OCC56CCCN5CC(F)C6)nc4c3F)c12 (stereo not given) + COC1C(OC(N)=O)C(O)C(Oc2ccc3c(O)c(NC(=O)c4ccc(O)c(CC=C(C)C)c4)c(=O)oc3c2C)OC1(C)C	113
CCc1cc2c(N3CCc4c(cc(Cn5ccnc5)cc4-c4cn(C)nc4C(F)(F)F)C3=O)cc(C)nc2c(OC)n1 + COC1C(OC(N)=O)C(O)C(Oc2ccc3c(O)c(NC(=O)c4ccc(O)c(CC=C(C)C)c4)c(=O)oc3c2C)OC1(C)C	106
CC1COCCN1c1cc(-c2ccnn2C)c2ccnc(-c3ccn[nH]3)c2n1 (stereo not given) + COC1C(OC(N)=O)C(O)C(Oc2ccc3c(O)c(NC(=O)c4ccc(O)c(CC=C(C)C)c4)c(=O)oc3c2C)OC1(C)C	78.2
CC1COCCN1c1cc(C2(S(C)(=N)=O)CC2)nc(-c2ccnc3[nH]ccc23)n1 (stereo not given) + Nc1ccc(C#CCN(C(=O)Cc2ncc(C(F)(F)F)cc2C(F)(F)F)c2ccc(F)cc2)nn1	110

Now for a further compound.
viability, T/C recorded for this compound, COc1ccc([C@@H](O)c2cc(-c3ncnc4cc(N5CCOCC5)ccc34)c(F)cc2Cl)nn1 + Nc1ccc(C#CCN(C(=O)Cc2ncc(C(F)(F)F)cc2C(F)(F)F)c2ccc(F)cc2)nn1 , is 122
